# target.entity: Acetylcholinesterase (Homo sapiens) (UniProt P22303)
# Sequence (P22303 whole entry, looked up): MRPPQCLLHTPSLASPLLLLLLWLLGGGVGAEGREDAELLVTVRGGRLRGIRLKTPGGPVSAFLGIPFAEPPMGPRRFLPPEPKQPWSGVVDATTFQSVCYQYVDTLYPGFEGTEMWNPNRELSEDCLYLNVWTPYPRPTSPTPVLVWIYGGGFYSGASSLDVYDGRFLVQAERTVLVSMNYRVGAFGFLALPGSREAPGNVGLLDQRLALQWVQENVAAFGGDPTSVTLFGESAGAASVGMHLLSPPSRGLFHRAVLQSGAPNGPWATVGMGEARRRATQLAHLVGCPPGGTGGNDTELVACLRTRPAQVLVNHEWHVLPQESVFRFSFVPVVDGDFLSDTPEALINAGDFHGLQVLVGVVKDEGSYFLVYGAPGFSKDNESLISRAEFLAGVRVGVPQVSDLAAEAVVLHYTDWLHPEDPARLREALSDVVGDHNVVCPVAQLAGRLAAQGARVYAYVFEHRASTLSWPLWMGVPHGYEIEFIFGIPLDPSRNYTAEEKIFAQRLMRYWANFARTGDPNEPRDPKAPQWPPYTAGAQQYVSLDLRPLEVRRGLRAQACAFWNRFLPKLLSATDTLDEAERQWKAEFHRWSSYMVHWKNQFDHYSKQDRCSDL
# assay.info: Acetylcholinesterase (AChE) small molecule antagonists: fluorescence cell-based qHTS assay (AID 1347398); note: nearly all actives have a fitted effect of over 50% in size
# measurement.conditions: SH-SY5Y cells; AChE activity; series mostly up to 115 µM
Inconclusive results are not listed. Calls of active or inactive are those of the source. Calls come from the whole dose curve.
Labels: yes (1) (active), no (0) (inactive)

molecule: CO[C@]1(NC(=O)CSC(F)F)C(=O)N2C(C(=O)O)=C(CSc3nnnn3CCO)CO[C@H]21
qualitative.label: no (0)
--
molecule: C=C(C)C(=O)NCCC[N+](C)(C)C
qualitative.label: no (0)
--
molecule: COc1c2ccoc2cc2oc(=O)ccc12
qualitative.label: no (0)
--
molecule: CC(C)=CC1CC(C)CCO1 (stereo not given)
qualitative.label: no (0)
--
molecule: Cc1cc(C)c(S(=O)(=O)O)cc1N=Nc1cc(S(=O)(=O)O)c2ccccc2c1O
qualitative.label: no (0)
--
molecule: O=c1cccc[nH]1
qualitative.label: no (0)
--
molecule: CCCc1nc(C)c2c(=O)[nH]c(-c3cc(S(=O)(=O)N4CCN(CC)CC4)ccc3OCC)nn12
qualitative.label: no (0)
--
molecule: NCCNC(=O)c1ccc(Cl)cn1
qualitative.label: no (0)
--
molecule: CC(=O)c1c(C)c([N+](=O)[O-])c(C(C)(C)C)c([N+](=O)[O-])c1C
qualitative.label: no (0)
--
molecule: O=c1[nH]cnc2[nH]ncc12
qualitative.label: no (0)
--
molecule: CN(C)C(=O)C1(N2CCCCC2)CCN(CC[C@@]2(c3ccc(Cl)c(Cl)c3)CN(C(=O)c3ccccc3)CCO2)CC1
qualitative.label: yes (1)
--
molecule: CS(=O)(=O)OCCCCOS(C)(=O)=O
qualitative.label: no (0)
--
molecule: Clc1ccc2c(c1)Nc1ccccc1S2
qualitative.label: no (0)
--
molecule: C[C@H](CCC(=O)O)[C@H]1CC[C@H]2[C@@H]3CC[C@@H]4C[C@H](O)CC[C@]4(C)[C@H]3C[C@H](O)[C@]12C
qualitative.label: no (0)
--
molecule: O=S(=O)(O)c1cccc2c(S(=O)(=O)O)cccc12
qualitative.label: no (0)
--
molecule: CC(C)Cc1nccs1
qualitative.label: no (0)
--
molecule: O=C1c2ccccc2C(=O)N1CCc1noc(-c2ccc(CN3CCCCCC3)s2)n1
qualitative.label: yes (1)
--
molecule: COc1ccc2c(c1)c(CC(=O)O)c(C)n2C(=O)c1ccc(Cl)cc1
qualitative.label: no (0)
--
molecule: OCCN(CCO)CCN(CCO)CCO
qualitative.label: no (0)
--
molecule: O=C1OC(=O)c2cccc3cccc1c23
qualitative.label: no (0)
--
molecule: O=C(Cn1ccnc1[N+](=O)[O-])NCc1ccccc1
qualitative.label: no (0)
--
molecule: CCCCC[Si](OCC)(OCC)OCC
qualitative.label: no (0)
--
molecule: Oc1c(I)cc(Cl)c2cccnc12
qualitative.label: no (0)
--
molecule: Cc1cccc(Nc2cc(Cl)nc(SCC(=O)O)n2)c1C
qualitative.label: no (0)
--
molecule: CC(=O)OC1CC(C)OC(C)O1 (stereo not given)
qualitative.label: no (0)

====

# target.entity: Acetylcholinesterase (Homo sapiens)
# assay.info: Acetylcholinesterase (AChE) small molecule antagonists: colormetric cell-based qHTS assay (AID 1347395); note: % is set by controls: 0 for no effect and ±100 for the full control effect; nearly all actives have a fitted effect of over 30% in size
# measurement.conditions: SH-SY5Y cells AChE activity, colorimetric (Ellman); series mostly up to 115 µM
Results filed as inconclusive are left out. Activity calls are given as the source filed them. The call rests on the fitted dose curve.
measured.endpoint: activity, negative = inhibition

compound: O=c1[nH]c(=O)c2cn[nH]c2[nH]1
test.result: inactive
//
compound: NNc1nc(-c2ccc([N+](=O)[O-])cc2)cs1
test.result: inactive
//
compound: CC/C=C\CCOC(C)OCC (stereo not drawn)
test.result: inactive
//
compound: C[C@@H](Oc1ccc(CNC(=O)c2cccnc2Oc2ccc3c(c2)OCO3)c(F)c1)C(=O)O
test.result: inactive
//
compound: C=CC(=O)OCCC#N
test.result: inactive
//
compound: CC[N+](CC)(CC(=O)Nc1c(C)cccc1C)Cc1ccccc1
test.result: inactive
//
compound: O=C(O)c1ccc(C(=O)O)c(C(=O)O)c1
test.result: inactive
//
compound: CN1CCN(C(c2ccccc2)c2ccccc2)CC1
test.result: inactive
//
compound: CCc1c(C(=O)O)c(=O)cnn1-c1ccc(Cl)cc1
test.result: inactive
//
compound: CC(C)(O)C#CC(C)(C)O
test.result: inactive
//
compound: NC(=O)c1ncn([C@@H]2O[C@H](CO)[C@@H](O)[C@H]2O)n1
test.result: inactive
//
compound: CO[Si](OC)(OC)c1ccccc1
test.result: inactive
//
compound: CCOCCOCCO
test.result: inactive
//
compound: Cc1nc2ccccc2c(=O)o1
test.result: inactive
//
compound: CC1(C)C(=O)N(Cl)C(=O)N1Cl
test.result: inactive
//
compound: CCCCCCCCOCCC#N
test.result: inactive
//
compound: Cc1cc(O)c(Cl)c(C)c1Cl
test.result: inactive
//
compound: C=CC(=O)OCCCCCCOC(=O)C=C
test.result: inactive
//
compound: CC(C)CCOCCC(C)C
test.result: inactive
//
compound: CNCCCCOc1ccccc1Cc1ccccc1
test.result: inactive
//
compound: CC(C)c1cc(C(C)C)cc(C(C)C)c1
test.result: inactive
//
compound: CCOC(=O)C(O)c1ccccc1 (stereo not drawn)
test.result: inactive
//
compound: COC1=CC(=O)C[C@@H](C)[C@]12Oc1c(Cl)c(OC)cc(OC)c1C2=O
test.result: inactive
//
compound: O=C(Nc1cccc(C(F)(F)F)c1)c1cc(Br)cc(Br)c1O
test.result: inactive
//
compound: CCCCCCCCOC(=O)c1ccc(O)cc1
test.result: inactive
//
compound: CC1=C(C(=O)O)N2C(=O)[C@@H](NC(=O)[C@H](N)c3ccccc3)[C@H]2SC1
test.result: inactive
//
compound: O=C1C(CCS(=O)c2ccccc2)C(=O)N(c2ccccc2)N1c1ccccc1 (stereo not drawn)
test.result: inactive
//
compound: O=c1cc(-c2ccccc2)oc2ccccc12
test.result: inactive

====

# target.entity: Glucocorticoid receptor (Homo sapiens)
# assay.info: qHTS assay to identify small molecule antagonists of the glucocorticoid receptor (GR) signaling pathway (AID 720692); note: potency is the fitted concentration of half-maximal effect
# measurement.conditions: GR-bla HeLa, beta-lactamase FRET ratio, dexamethasone-stimulated, 18 h; series mostly up to 58.5 µM
Results filed as inconclusive are left out. Calls of active or inactive are those of the source. Calls follow the shape of the dose curve; as a rule, active = well fitted inhibition curve with a large enough effect in the signal ratio in the repeat runs (not every such curve was filed as active); inconclusive = weak or mixed curves, or effect the other way; inactive = no such curve, though single readings can be large or run the other way; the % refers to the signal ratio.

item.smiles: C[C@]12CC[C@@H]3c4ccc(OC(=O)N(CCCl)CCCl)cc4CC[C@H]3[C@@H]1CC[C@@H]2OP(=O)(O)O
Potency: inactive

item.smiles: CN(C)CCCCCCN(C)C
Potency: inactive

item.smiles: C/C=C(\CC)C(=O)NC(N)=O
Potency: inactive

item.smiles: COc1ccc2c3c1O[C@H]1[C@@H](O)C=C[C@H]4[C@@H](C2)NCC[C@@]341
Potency: inactive

item.smiles: C[C@]12CCC(=O)C=C1C=C[C@@H]1[C@@H]2CC[C@@]2(C)[C@H]1CC[C@@]2(O)CCC(=O)O
Potency: 9.1 µM (active)

====

# target.entity: Acetylcholinesterase (Homo sapiens)
# assay.info: Acetylcholinesterase (AChE) small molecule antagonists: fluorescence cell-based qHTS assay (AID 1347398); note: nearly all actives have a fitted effect of over 50% in size
# measurement.conditions: SH-SY5Y cells; AChE activity; series mostly up to 115 µM
Records with an inconclusive call do not appear. Calls of active or inactive are those of the source. The call rests on the fitted dose curve.

item.smiles: OC[C@@H](O)[C@@H](O)[C@H](O)[C@@H](O)CO
outcome: inactive

item.smiles: CCCc1cc(=O)[nH]c(=S)[nH]1
outcome: inactive

item.smiles: Cc1nc(C2CCCCC2)c(-c2ccc(S(N)(=O)=O)c(F)c2)o1
outcome: inactive

item.smiles: Cc1cc(O)c(Cl)c(C)c1Cl
outcome: inactive

item.smiles: Cc1ccc2oc(CN(Cc3ccccc3)C(=O)Nc3c(F)cc(F)cc3F)c(-c3ccc(Cl)cc3)c2c1
outcome: inactive

item.smiles: CC1(C)O[C@H]2CC(=O)OC[C@]23[C@H]2CC[C@@]4(C)[C@H](c5ccoc5)OC(=O)[C@H]5O[C@]54[C@]2(C)C(=O)C[C@@H]13
outcome: inactive

item.smiles: NC(N)=Nc1nc(CSCC/C(N)=N/S(N)(=O)=O)cs1
outcome: inactive

item.smiles: Nc1nc2c(ncn2COC(CO)CO)c(=O)[nH]1
outcome: inactive

item.smiles: CCCCCCCCCCCCCCC(=O)O
outcome: inactive

item.smiles: c1ccc2c(c1)-c1ccc3ccc4cccc5cc-2c1c3c45
outcome: inactive

item.smiles: C/C=C(C)/C=C/C=C(C)C
outcome: inactive

====

# target.entity: Androgen receptor (Homo sapiens) (UniProt P10275)
# Sequence (P10275 whole entry, looked up): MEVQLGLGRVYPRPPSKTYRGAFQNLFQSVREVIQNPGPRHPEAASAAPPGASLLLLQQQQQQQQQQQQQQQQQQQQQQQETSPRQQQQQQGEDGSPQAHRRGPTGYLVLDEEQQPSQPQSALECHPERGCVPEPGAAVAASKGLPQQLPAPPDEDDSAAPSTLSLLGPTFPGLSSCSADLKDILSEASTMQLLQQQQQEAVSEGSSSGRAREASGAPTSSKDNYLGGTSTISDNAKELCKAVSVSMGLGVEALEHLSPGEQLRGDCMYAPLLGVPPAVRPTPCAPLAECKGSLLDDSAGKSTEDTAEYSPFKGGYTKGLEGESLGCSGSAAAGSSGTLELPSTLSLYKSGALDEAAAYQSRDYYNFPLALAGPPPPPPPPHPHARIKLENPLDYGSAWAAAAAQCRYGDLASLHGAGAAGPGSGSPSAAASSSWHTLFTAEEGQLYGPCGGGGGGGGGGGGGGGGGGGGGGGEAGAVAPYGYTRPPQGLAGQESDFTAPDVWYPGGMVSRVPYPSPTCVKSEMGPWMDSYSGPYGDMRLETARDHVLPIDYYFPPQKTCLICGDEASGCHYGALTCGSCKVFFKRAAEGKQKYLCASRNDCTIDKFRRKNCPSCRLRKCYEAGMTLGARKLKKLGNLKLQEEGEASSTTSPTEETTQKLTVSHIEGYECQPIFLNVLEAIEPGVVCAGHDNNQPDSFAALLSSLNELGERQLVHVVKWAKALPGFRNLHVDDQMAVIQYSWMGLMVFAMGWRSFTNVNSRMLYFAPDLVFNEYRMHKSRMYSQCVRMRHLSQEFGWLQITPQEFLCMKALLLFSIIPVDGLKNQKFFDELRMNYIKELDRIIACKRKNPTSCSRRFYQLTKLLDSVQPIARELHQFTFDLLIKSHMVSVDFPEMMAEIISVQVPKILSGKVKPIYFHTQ
# assay.info: qHTS assay to identify small molecule antagonists of the androgen receptor (AR) signaling pathway using the MDA cell line (AID 743042; note: nearly all actives have a fitted effect of over 55% in size)
# measurement.conditions: MDA-kb2 AR-luc, MMTV luciferase, R1881 antagonist, 16 h; series mostly up to 70.3 µM
Results filed as inconclusive are left out. Activity calls are given as the source filed them. Calls come from the whole dose curve; as a rule, active = well fitted inhibition curve with a large enough effect in the repeat runs; inconclusive = weak or mixed curves, or effect the other way; inactive = no such curve, though single readings can be large or run the other way.
Outcome codes: 1 = active, -1 = inactive

compound: O=[N+]([O-])c1cc(I)c(O)c(I)c1
qualitative.label: -1
--
compound: [2H]C([2H])([2H])[C@H](N)Cc1ccccc1
qualitative.label: -1
--
compound: CCCCCc1cc(O)c2c(c1)OC(C)(C)[C@@H]1CCC(C)=C[C@@H]21
qualitative.label: -1
--
compound: O=C1CCCCC1CN1CCCCC1 (centres undefined)
qualitative.label: -1
--
compound: CNC(C)CC1CCCCC1 (centres undefined)
qualitative.label: -1
--
compound: CC(C)CCC(=O)O[C@H]1CC[C@H]2[C@@H]3CCC4=CC(=O)CC[C@]4(C)[C@H]3CC[C@]12C
qualitative.label: -1
--
compound: C[C@]12CC[C@@H]3c4ccc(OC(=O)N(CCCl)CCCl)cc4CC[C@H]3[C@@H]1CC[C@@H]2OP(=O)(O)O
qualitative.label: -1
--
compound: CC(=O)O[C@H]1C[C@H](O[C@H]2[C@@H](O)C[C@H](O[C@H]3[C@@H](O)C[C@H](OC4CC[C@@]5(C)[C@H](CC[C@@H]6[C@@H]5CC[C@]5(C)[C@@H](C7=CC(=O)OC7)CC[C@]65O)C4)O[C@@H]3C)O[C@@H]2C)O[C@H](C)[C@H]1O[C@@H]1O[C@H](CO)[C@@H](O)[C@H](O)[C@H]1O (some centres undefined)
qualitative.label: 1
--
compound: COC(=O)[C@H]1[C@@H](OC(=O)c2ccccc2)C[C@@H]2CC[C@H]1N2C
qualitative.label: -1
